experimentalSystem: ErbB2 WT (Homo sapiens (Human), UniProt P04626)
Sequence (P04626 23-1255): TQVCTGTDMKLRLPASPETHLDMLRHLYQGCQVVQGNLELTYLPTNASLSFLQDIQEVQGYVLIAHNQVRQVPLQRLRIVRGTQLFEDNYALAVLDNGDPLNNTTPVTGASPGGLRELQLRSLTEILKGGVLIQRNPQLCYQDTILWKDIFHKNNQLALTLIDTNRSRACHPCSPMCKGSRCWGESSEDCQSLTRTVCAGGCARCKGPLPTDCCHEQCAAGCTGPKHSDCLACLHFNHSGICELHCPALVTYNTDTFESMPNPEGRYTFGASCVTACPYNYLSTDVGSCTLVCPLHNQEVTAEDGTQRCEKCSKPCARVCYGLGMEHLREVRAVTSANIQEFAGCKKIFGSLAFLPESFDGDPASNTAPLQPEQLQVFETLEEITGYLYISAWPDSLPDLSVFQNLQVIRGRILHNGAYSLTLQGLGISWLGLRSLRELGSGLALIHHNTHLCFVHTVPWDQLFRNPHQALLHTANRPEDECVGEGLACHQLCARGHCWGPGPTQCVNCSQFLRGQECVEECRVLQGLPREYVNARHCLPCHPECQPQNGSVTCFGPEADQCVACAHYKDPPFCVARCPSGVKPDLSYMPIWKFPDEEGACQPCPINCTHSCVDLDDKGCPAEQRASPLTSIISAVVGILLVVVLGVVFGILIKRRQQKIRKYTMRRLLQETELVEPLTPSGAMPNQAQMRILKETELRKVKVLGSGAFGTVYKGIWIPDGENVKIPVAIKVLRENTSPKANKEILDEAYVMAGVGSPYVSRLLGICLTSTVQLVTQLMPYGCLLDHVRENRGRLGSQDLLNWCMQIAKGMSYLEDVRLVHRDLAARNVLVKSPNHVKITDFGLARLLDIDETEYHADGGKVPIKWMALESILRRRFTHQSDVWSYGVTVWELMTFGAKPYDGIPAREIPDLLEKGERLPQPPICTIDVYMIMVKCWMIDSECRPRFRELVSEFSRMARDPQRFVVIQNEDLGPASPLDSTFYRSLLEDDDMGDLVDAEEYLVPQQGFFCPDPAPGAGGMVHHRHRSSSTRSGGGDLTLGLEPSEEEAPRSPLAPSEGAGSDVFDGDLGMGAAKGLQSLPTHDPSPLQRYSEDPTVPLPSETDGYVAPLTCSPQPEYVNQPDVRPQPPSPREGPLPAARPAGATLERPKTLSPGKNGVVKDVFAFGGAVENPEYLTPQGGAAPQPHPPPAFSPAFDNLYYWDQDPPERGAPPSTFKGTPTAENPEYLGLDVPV
experimentDescription: ErbB Enzyme Assay (HTRF KinEASE-TK), Assay 2
Type: biochemical
conditionContext: ErbB2 WT enzyme assay
property: IC50 (µM)
Please reply with the bare figure in µM and do not write the unit itself.

The value of IC50 measured for the compound `C=CC(=O)N1CCN(c2ccc3ncnc(Nc4cc(C)c(Oc5ccn6ncnc6c5)cc4F)c3n2)CC12CC2` turned out to be 0.013

The value of IC50 measured for the compound `C=CC(=O)N1[C@@H]2CC[C@H]1[C@H](c1ccc3ncnc(Nc4ccc(Oc5ccn6ncnc6c5)c(Cl)c4F)c3n1)C2` turned out to be 0.0072

The value of IC50 measured for the compound C=CC(=O)N1CCCC(c2ccc3ncnc(Nc4cc(Cl)c(Oc5ccn6ncnc6c5)cc4F)c3n2)CC1 (stereo not shown) turned out to be 0.016

The value of IC50 measured for the compound `C=CC(=O)N1CC(Cc2ccc3ncnc(Nc4ccc(Oc5ccn6ncnc6c5)c(C)c4F)c3n2)C1` turned out to be 0.0365

The value of IC50 measured for the compound C=CC(=O)N1CCN(c2ccc3ncnc(Nc4cc(Cl)c(Oc5ccn6ncnc6c5)cc4F)c3n2)CC1C(F)F (stereo not shown) turned out to be 0.0176

The value of IC50 measured for the compound `C=CC(=O)N1C[C@@H]2C[C@H]1C[C@H]2c1ccc2ncnc(Nc3cc(C)c(Oc4ccc5c(c4)ncn5C)cc3F)c2n1` turned out to be 0.0436

The value of IC50 measured for the compound `C=CC(=O)N1C[C@H]2CC[C@@H]1[C@H](c1ccc3ncnc(Nc4ccc(Oc5cnc6c(c5)ncn6C)c(C)c4F)c3n1)C2` turned out to be 0.183

The value of IC50 measured for the compound `C=CC(=O)N1CCN(c2ccc3ncnc(Nc4ccc(Oc5ccn6ncnc6c5)c(C)c4F)c3n2)C[C@H]1C(C)(C)C` turned out to be 0.02

The value of IC50 measured for the compound `C=CC(=O)N1C[C@@H]2C[C@H]1CC[C@@H]2c1ccc2ncnc(Nc3cc(C)c(Oc4ccn5ncnc5c4)cc3F)c2n1` turned out to be 0.0681

The value of IC50 measured for the compound `C=CC(=O)N1CCN(c2ccc3ncnc(Nc4ccc(Oc5ccc6c(c5)ncn6C)c(C(F)F)c4)c3n2)CC1` turned out to be 0.0292

The value of IC50 measured for the compound `C=CC(=O)N1CCN(c2ccc3ncnc(Nc4cc(C)c(Oc5ccc6c(c5)ncn6C)cc4F)c3n2)C[C@@H]1C1CC1` turned out to be 0.171

The value of IC50 measured for the compound `C=CC(=O)N1[C@@H]2CC[C@H]1[C@H](c1ccc3ncnc(Nc4ccc(Oc5cnc6c(c5)ncn6C)c(C)c4F)c3n1)C2` turned out to be 0.0423

The value of IC50 measured for the compound `C=CC(=O)N1CCN(c2ccc3ncnc(Nc4cc(C)c(Oc5ccn6ncnc6c5)cc4F)c3n2)C[C@H]1COC` turned out to be 0.038

The value of IC50 measured for the compound `C=CC(=O)N1C[C@@H]2C[C@H](c3ccc4ncnc(Nc5ccc(Oc6ccn7ncnc7c6)c(C)c5F)c4n3)C[C@H]1C2` turned out to be 0.0239

The value of IC50 measured for the compound `C=CC(=O)N1CC[C@@H]2C[C@H]1CN2c1ccc2ncnc(Nc3cc(Cl)c(Oc4cnc5c(c4)ncn5C)cc3F)c2n1` turned out to be 0.711

The value of IC50 measured for the compound C=CC(=O)N1[C@@H](C)CC(c2ccc3ncnc(Nc4ccc(Oc5ccc6c(c5)ncn6C)c(C)c4F)c3n2)C[C@@H]1C (mixture of isomers) turned out to be 0.0797

The value of IC50 measured for the compound `C=CC(=O)N1C[C@H]2CC[C@@H]1[C@H](c1ccc3ncnc(Nc4cc(C)c(Oc5cnc6c(c5)ncn6C)cc4F)c3n1)C2` turned out to be 0.405

The value of IC50 measured for the compound `C=CC(=O)N1CC2CCC(C1)N2c1ccc2ncnc(Nc3cc(Cl)c(Oc4ccn5ncnc5c4)cc3F)c2n1` turned out to be 0.0311

The value of IC50 measured for the compound `C=CC(=O)N1CC2CCC(C1)N2c1ccc2ncnc(Nc3cc(C)c(Oc4ccn5ncnc5c4)cc3F)c2n1` turned out to be 0.0356

The value of IC50 measured for the compound `C=CC(=O)N1[C@@H](C)CN(c2ccc3ncnc(Nc4ccc(Oc5ccc6c(c5)ncn6C)c(C)c4F)c3n2)C[C@@H]1C` turned out to be 0.0572

The value of IC50 measured for the compound C=CC(=O)N1CCCC(c2ccc3ncnc(Nc4cc(C)c(Oc5cnc6c(c5)ncn6C)cc4F)c3n2)CC1 (stereo not shown) turned out to be 0.206

The value of IC50 measured for the compound `C=CC(=O)N1CCN(c2ccc3ncnc(Nc4ccc(Oc5ccn6ncnc6c5)cc4C(F)(F)F)c3n2)CC1(C)C` turned out to be 0.37

Values were extracted from patent US12447153B2.
